- TESTED_ON: MAP2K2 (human)
- ASSAY_OVERVIEW: radiometric filter-binding kinase assay, Kinase HotSpot
- STUDY_CONDITIONS: compound 0.5 µM; ATP 10 µM
OBSERVED_PROPERTY: residual activity (%)
Express the result in % but write the number alone.

                               query_smiles  unit   val
0  c1ccc(-c2cnc(Nc3ccc(OCCN4CCCC4)cc3)s2)cc1     %  90.2
1  O=c1c(-c2ccc(F)cc2)c(-c2ccncc2)[nH]n1-c1ccc(Cl)cc1     %  82.5
2       CCOc1cc2ncnc(Nc3cccc(Br)c3)c2cc1OCC     %  95.5

Proceeding to the next compound to report its residual activity.
# return recorded residual activity for input O=C(O)c1ccc2c3c1cccc3c(=O)n1c3ccccc3nc21
105

----------
- TESTED_ON: WNK3 (human) (UniProt Q9BYP7)
- Sequence (Q9BYP7 whole entry, looked up): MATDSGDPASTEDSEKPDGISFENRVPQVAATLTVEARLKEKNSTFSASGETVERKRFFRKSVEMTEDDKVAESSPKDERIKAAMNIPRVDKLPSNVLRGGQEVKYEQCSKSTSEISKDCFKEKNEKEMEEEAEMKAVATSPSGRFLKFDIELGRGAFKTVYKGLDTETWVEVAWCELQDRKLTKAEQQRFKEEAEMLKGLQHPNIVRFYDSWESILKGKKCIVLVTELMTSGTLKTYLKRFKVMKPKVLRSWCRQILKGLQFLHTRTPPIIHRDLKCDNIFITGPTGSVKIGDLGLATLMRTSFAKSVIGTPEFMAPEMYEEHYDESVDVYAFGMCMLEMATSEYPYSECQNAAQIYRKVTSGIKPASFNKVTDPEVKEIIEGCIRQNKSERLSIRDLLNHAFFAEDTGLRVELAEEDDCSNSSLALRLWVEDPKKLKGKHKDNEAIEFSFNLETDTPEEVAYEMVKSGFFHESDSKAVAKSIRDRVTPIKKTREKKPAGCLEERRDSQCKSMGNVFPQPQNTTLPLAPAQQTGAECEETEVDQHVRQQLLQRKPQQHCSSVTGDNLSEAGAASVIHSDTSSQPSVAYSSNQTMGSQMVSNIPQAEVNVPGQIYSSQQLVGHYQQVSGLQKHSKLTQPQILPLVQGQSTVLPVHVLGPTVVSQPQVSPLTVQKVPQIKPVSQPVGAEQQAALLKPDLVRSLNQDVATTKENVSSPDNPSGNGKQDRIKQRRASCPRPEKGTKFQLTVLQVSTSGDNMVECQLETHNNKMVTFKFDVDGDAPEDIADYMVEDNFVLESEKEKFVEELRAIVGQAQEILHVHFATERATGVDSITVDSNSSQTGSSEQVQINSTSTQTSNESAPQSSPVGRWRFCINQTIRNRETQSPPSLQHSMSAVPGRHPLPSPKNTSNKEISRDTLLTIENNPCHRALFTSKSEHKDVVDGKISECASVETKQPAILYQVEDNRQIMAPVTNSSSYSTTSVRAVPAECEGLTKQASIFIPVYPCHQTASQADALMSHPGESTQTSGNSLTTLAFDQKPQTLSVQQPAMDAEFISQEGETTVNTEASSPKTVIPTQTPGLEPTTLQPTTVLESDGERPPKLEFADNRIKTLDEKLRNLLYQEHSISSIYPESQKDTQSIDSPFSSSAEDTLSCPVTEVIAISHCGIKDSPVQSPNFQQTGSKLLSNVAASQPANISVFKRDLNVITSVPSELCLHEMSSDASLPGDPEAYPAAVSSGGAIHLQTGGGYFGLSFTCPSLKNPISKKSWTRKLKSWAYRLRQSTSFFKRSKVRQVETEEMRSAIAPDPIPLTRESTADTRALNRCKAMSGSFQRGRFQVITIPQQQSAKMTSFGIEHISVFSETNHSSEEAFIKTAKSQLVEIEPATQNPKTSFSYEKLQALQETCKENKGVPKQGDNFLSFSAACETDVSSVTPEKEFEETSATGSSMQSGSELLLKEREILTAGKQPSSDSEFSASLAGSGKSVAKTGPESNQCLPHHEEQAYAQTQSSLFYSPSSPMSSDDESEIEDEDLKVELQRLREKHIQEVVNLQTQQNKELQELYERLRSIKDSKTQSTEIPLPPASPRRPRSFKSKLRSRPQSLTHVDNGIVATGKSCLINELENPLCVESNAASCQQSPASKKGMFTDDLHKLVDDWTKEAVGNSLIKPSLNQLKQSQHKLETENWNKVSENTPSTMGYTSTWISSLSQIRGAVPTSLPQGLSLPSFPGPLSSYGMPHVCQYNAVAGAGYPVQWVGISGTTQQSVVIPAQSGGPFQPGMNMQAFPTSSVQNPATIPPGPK
- ASSAY_OVERVIEW: radiometric filter-binding kinase assay, Kinase HotSpot
- STUDY_CONDITIONS: compound 0.5 µM; ATP 10 µM
OBSERVED_PROPERTY: residual activity (%)
Express the result in % but write the number alone.

Worked set:
>>> df
                               query_smiles                      tested_on  observed_property   val
0     O=c1cc(N2CCOCC2)oc2c(-c3ccccc3)cccc12  WNK3 (human) (UniProt Q9BYP7)  residual activity  89.2
1  c1ccc(-c2cnc(Nc3ccc(OCCN4CCCC4)cc3)s2)cc1  WNK3 (human) (UniProt Q9BYP7)  residual activity    99
2    N#Cc1c(NC(=O)c2cccc3ccccc23)sc2c1CCCC2  WNK3 (human) (UniProt Q9BYP7)  residual activity  99.2
3  O=c1[nH]c2ccccc2n1C1CCN(Cc2ccc(-c3nc4cc5[nH]cnc5cc4nc3-c3ccccc3)cc2)CC1  WNK3 (human) (UniProt Q9BYP7)  residual activity   106
4       CCOc1cc2ncnc(Nc3cccc(Br)c3)c2cc1OCC  WNK3 (human) (UniProt Q9BYP7)  residual activity  96.5
5  O=S(=O)(NCCNC/C=C/c1ccc(Br)cc1)c1cccc2cnccc12  WNK3 (human) (UniProt Q9BYP7)  residual activity  93.1

Name the value of residual activity reported for O=C1NC(=O)c2cc(Nc3ccc(F)cc3)c(Nc3ccc(F)cc3)cc21 when tested on WNK3 (human) (UniProt Q9BYP7).
92.7

Name the value of residual activity reported for N#CCCc1ccc2c(c1)-c1[nH]c3ccc([N+](=O)[O-])cc3c1CC(=O)N2 when tested on WNK3 (human) (UniProt Q9BYP7).
96.5

Name the value of residual activity reported for N#C/C(=C1/Nc2ccccc2S1)c1ccnc(NCCc2cccnc2)n1 when tested on WNK3 (human) (UniProt Q9BYP7).
81.3

Name the value of residual activity reported for COc1cc2c(Nc3ccc(Br)cc3F)ncnc2cc1OCC1CCN(C)CC1 when tested on WNK3 (human) (UniProt Q9BYP7).
98

Name the value of residual activity reported for CCCCc1c(-c2ccc(O)cc2)[nH]c2nccnc12 when tested on WNK3 (human) (UniProt Q9BYP7).
90.3

----------
- TESTED_ON: MAP3K3 (human) (UniProt Q99759)
- Sequence (Q99759 whole entry, looked up): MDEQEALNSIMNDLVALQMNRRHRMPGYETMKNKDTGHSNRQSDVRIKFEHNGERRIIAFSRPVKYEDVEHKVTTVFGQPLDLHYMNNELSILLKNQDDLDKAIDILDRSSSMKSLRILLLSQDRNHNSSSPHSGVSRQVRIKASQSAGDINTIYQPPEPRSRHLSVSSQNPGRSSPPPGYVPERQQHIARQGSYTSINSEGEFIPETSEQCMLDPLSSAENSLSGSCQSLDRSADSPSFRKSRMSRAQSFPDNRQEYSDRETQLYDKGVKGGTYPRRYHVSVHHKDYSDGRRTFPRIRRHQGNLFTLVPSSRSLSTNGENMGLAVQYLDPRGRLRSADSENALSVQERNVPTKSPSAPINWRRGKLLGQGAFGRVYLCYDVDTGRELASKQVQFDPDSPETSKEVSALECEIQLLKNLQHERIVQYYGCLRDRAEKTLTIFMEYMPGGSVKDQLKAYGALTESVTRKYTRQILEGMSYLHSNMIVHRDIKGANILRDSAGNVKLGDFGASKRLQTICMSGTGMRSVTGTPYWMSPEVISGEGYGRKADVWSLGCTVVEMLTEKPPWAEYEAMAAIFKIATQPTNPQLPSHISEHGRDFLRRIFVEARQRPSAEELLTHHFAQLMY
- ASSAY_OVERVIEW: radiometric filter-binding kinase assay, Kinase HotSpot
- STUDY_CONDITIONS: compound 0.5 µM; ATP 10 µM
OBSERVED_PROPERTY: residual activity (%)
Express the result in % but write the number alone.

Worked set:
In [3]: df
Out[3]:
                               query_smiles                        tested_on   val
0  c1ccc(-c2cnc(Nc3ccc(OCCN4CCCC4)cc3)s2)cc1  MAP3K3 (human) (UniProt Q99759)  99.2
1  Cn1cc(/C=C2\C(=O)Nc3ccc(S(N)(=O)=O)cc32)c2ccccc21  MAP3K3 (human) (UniProt Q99759)  80.7
2  N#CCCc1ccc2c(c1)-c1[nH]c3ccc([N+](=O)[O-])cc3c1CC(=O)N2  MAP3K3 (human) (UniProt Q99759)  83.3
3  COc1cc2c(cc1OC)-c1[nH]nc(Nc3cccc(F)c3)c1C2  MAP3K3 (human) (UniProt Q99759)   103
4  O=C1NC(=O)c2cc(Nc3ccc(F)cc3)c(Nc3ccc(F)cc3)cc21  MAP3K3 (human) (UniProt Q99759)   102

# return recorded residual activity for input CCCCc1c(-c2ccc(O)cc2)[nH]c2nccnc12
127

# return recorded residual activity for input CCOc1cc2ncnc(Nc3cccc(Br)c3)c2cc1OCC
92.9

# return recorded residual activity for input COc1cc2ncnc(Nc3ccc(O)c(Br)c3)c2cc1OC
82

# return recorded residual activity for input N#Cc1c(NC(=O)c2cccc3ccccc23)sc2c1CCCC2
99.8

# return recorded residual activity for input Nc1ncnc2c1cnn2-c1ccccc1
95.5

# return recorded residual activity for input COc1cc2c(N3CCN(C(=O)Nc4ccc(OC(C)C)cc4)CC3)ncnc2cc1OCCCN1CCCCC1
106

# return recorded residual activity for input COc1cccc(-c2cc(=O)c3ccccc3o2)c1N
83

# return recorded residual activity for input O=c1[nH]c2ccccc2n1C1CCN(Cc2ccc(-c3nc4cc5[nH]cnc5cc4nc3-c3ccccc3)cc2)CC1
101

# return recorded residual activity for input O=C(c1ccccc1)c1ccc(N2CCOCC2)cc1O
97.8

# return recorded residual activity for input COc1cc2c(Nc3ccc(Br)cc3F)ncnc2cc1OCC1CCN(C)CC1
102

# return recorded residual activity for input O=S(=O)(NCCNC/C=C/c1ccc(Br)cc1)c1cccc2cnccc12
85.4

----------
Reported residual activity values for the following compounds.
- TESTED_ON: AURKB (human) (UniProt Q96GD4)
- Sequence (Q96GD4 whole entry, looked up): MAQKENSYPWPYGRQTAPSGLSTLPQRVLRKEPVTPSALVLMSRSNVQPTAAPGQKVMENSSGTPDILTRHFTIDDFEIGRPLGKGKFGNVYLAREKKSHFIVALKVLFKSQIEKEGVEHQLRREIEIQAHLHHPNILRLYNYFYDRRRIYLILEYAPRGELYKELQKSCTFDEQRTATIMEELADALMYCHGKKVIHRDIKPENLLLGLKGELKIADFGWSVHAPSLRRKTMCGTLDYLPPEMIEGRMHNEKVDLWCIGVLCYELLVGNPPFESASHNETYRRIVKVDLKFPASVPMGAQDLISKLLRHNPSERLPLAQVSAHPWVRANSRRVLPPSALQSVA
- ASSAY_OVERVIEW: radiometric filter-binding kinase assay, Kinase HotSpot
- STUDY_CONDITIONS: compound 0.5 µM; ATP 10 µM

>>> print(df.to_string())
                               query_smiles    val
0  COc1cc2c(Nc3ccc(Br)cc3F)ncnc2cc1OCC1CCN(C)CC1  95.5%
1  O=C(O)c1ccc2c3c1cccc3c(=O)n1c3ccccc3nc21  82.5%
2   Cc1cc(Nc2nc(-c3ccccc3)nc3ccccc23)n[nH]1    52%
3      CCc1nc(-c2ccc(OC)cc2)[nH]c1-c1ccncc1   101%
4  N#CCCc1ccc2c(c1)-c1[nH]c3ccc([N+](=O)[O-])cc3c1CC(=O)N2    80%

Proceeding to the next compound to report its residual activity.
Name the value of residual activity reported for O=C1NC(=O)c2c1c1c3ccccc3[nH]c1c1[nH]c3cc(Br)ccc3c21 when tested on AURKB (human) (UniProt Q96GD4).
44.3%

----------
- TESTED_ON: UniProtKB Q9NWZ3
- Sequence (Q9NWZ3 whole entry, looked up): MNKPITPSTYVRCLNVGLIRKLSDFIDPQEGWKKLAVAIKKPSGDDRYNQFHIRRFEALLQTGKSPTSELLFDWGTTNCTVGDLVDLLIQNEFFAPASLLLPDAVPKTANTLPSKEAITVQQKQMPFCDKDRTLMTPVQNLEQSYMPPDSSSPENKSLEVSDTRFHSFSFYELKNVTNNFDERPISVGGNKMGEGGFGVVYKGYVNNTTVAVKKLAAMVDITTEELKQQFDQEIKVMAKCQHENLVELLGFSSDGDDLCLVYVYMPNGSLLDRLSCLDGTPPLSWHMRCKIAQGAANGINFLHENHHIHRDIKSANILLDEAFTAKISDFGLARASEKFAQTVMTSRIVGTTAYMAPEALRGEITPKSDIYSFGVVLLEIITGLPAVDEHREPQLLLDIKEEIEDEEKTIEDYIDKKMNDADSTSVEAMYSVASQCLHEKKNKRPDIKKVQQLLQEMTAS
- ASSAY_OVERVIEW: radiometric filter-binding kinase assay, Kinase HotSpot
- STUDY_CONDITIONS: compound 0.5 µM; ATP 10 µM
Field: label. Allowed values: YES (residual activity < 90%) or NO (residual activity >= 90%).

Example results:
In [3]: df
Out[3]:
                               query_smiles  group
0          O=C(c1ccccc1)c1ccc(N2CCOCC2)cc1O     NO
1        CCCCc1c(-c2ccc(O)cc2)[nH]c2nccnc12     NO
2     O=c1cc(N2CCOCC2)oc2c(-c3ccccc3)cccc12     NO
3       CCOc1cc2ncnc(Nc3cccc(Br)c3)c2cc1OCC     NO
4  N#C/C(=C1/Nc2ccccc2S1)c1ccnc(NCCc2cccnc2)n1    YES
5  O=C(O)c1ccc2c3c1cccc3c(=O)n1c3ccccc3nc21     NO

Is residual activity strictly under 90% for the entry Cn1cc(/C=C2\C(=O)Nc3ccc(S(N)(=O)=O)cc32)c2ccccc21 ?
YES

Is residual activity strictly under 90% for the entry COc1cc2c(N3CCN(C(=O)Nc4ccc(OC(C)C)cc4)CC3)ncnc2cc1OCCCN1CCCCC1 ?
NO

Is residual activity strictly under 90% for the entry O=S(=O)(NCCNC/C=C/c1ccc(Br)cc1)c1cccc2cnccc12 ?
NO

Is residual activity strictly under 90% for the entry FC(F)(F)c1ccc(/C=C/c2nc(COc3ccc(CCCCn4ccnn4)cc3)co2)cc1 ?
NO

Is residual activity strictly under 90% for the entry c1ccc(-c2cnc(Nc3ccc(OCCN4CCCC4)cc3)s2)cc1 ?
YES

Is residual activity strictly under 90% for the entry CCc1nc(-c2ccc(OC)cc2)[nH]c1-c1ccncc1 ?
NO

Is residual activity strictly under 90% for the entry O=c1c2ccccc2[nH]c(=S)n1CCN1CCC(=C(c2ccc(F)cc2)c2ccc(F)cc2)CC1 ?
NO

Is residual activity strictly under 90% for the entry O=c1c(-c2ccc(F)cc2)c(-c2ccncc2)[nH]n1-c1ccc(Cl)cc1 ?
YES

Is residual activity strictly under 90% for the entry N#Cc1c(NC(=O)c2cccc3ccccc23)sc2c1CCCC2 ?
NO
